target: T1, human MSLN-R3-his protein (human, UniProt Q13421 487-598); test: ELISA on coated MSLN-R3; antibody 0.001 nM
T1 construct: Region 3 of human mesothelin, made in HEK293E cells, His-tagged; also called human MSLN-R3 protein; hMSLN-R3-his; not shown: His tag
T1 sequence (Q13421 495-606): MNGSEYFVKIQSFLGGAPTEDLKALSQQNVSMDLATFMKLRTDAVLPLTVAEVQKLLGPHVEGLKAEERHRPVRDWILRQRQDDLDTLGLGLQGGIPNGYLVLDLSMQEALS
Recorded OD450, one value per entry.
Give just the numeric value; OD450 need not be written.

Completed entries (count: 3):
>>> measured("S009-F8-24.14 (antibody, human IgG1, kappa, V domains shown) VH: EFQLQQSGPELVKPGASVKISCKASGYSFTDYNMNWVKLSNGKSLEWIGVIIPNYGTSSYNQKFKGKATLTVDQSSSTAYMQLNSLTSEDSAVYYCARWDNYYGSSLDYWGQGTTLTVSS VL: DIVMTQSQKFMSTTVGDRVSITCKASQNVGTAVAWYQQKPGQSPKLLIYSASNRYTGVPDRFTGSGSGTDFILTISNMQSEDLADYFCQQYSSYPLTFGAGTKLELKR")
0.04
>>> measured("S009-F8-19.21 (antibody, human IgG1, kappa, V domains shown) VH: EFQLQQSGPELVKPGASVKISCKTSGYSFTDYNMNWVKQSNGKSLEWIGVINPNYGTTGYNQKFKGKATLTVDQSSSTAYMQLNSLTSEDSAVYYCARGGYDGEAMDYWGHGTSVTVSS VL: QIVLTQSPAIMSASPGEKVTMTCSASSSVNYMHWYQQKSGTSPKRWIYDTSKLASGVPARFSGSGSGTSYSLTISSMEAEDAATYYCQQWSSYPPTFGGGTKLEIKR")
0.04
>>> measured("S009-F8-27.1 (antibody, human IgG1, kappa, V domains shown) VH: EVQLVESGGGLVKPGGSLKLSCAASGFTFSSYAMSWVRQTPEKRLEWVATISDGGNYTYYPDNVKGRFTISRDNAKNNLYLQMSHLKSEDTAMYYCAGDRGYPYAMDSWGQGTSVTVSS VL: NIMMTQSPSSLAVSAGEKVTMSCKSSQSVLYSSNQKNYLAWYQQKPGQSPKLLIYWASTRESGVPDRFTGSGSGTDFTLTISNVHAEDLAVYYCHQYLSSLTFGAGTKLELKR")
0.05

The value of OD450 measured for the binder S009-F8-8.22 (antibody, human IgG1, kappa, V domains shown) VH: EVQLQQSGPELVKPGASVKMSCKASGYTFTDYIIHWVKQSHGKSLEWIAYIFPNNGGTGYNQKFRGKATLTVNKSSSTAYMELRSLTSEDSAVYYCARWRLRQYFDVWGTGTTVTVSS VL: DIVMTQSQKFMSTIVGDRVSITCKASQNVGTAVAWYQQKPGQSPKLLIYSASNRYTGVPDRFTGSGSGTDFTLTISNMQSEDLADYFCQQYSSYPLTFGGGTKLEIKR turned out to be 0.04

The value of OD450 measured for the binder S009-F8-12.13 (antibody, human IgG1, kappa, V domains shown) VH: QVQLQQPGAELVKPGASVKLSCKASGYTFTSYWMHWVKQRPGQGLEWIGMIHPNSGSTNYNEKFKSKATLTVDKSSSTAYMQLSSLTSEDSAVYYCARRTPIITLVGHWYFDVWGTGTTVTVSS VL: DIVMTQSHKFMSTSVGDRVSITCKASQDVGTAVAWYQQKPGQSPKLLIYWASTRHTGVPDRFTGSGSGTDFTLTISNVQSEDLADYFCQQYSSYPLTFGAGTKLELKR turned out to be 0.05

The value of OD450 measured for the binder S009-F8-28.23 (antibody, human IgG1, kappa, V domains shown) VH: EVQLVESGGDLVKPGGSLKLSCAASGFTFSSYAMSWVRQTPEKRLEWVATISDGGSYTYYPDNVEGRFTISRDNAKNNLYLQMSHLKSEDTAMYYCAGDRGYSYALDYWGQGTSVTVSS VL: NIMMTQSPSSLAVSAGEKVTMSCKSSQSVLYSSNQKNYLAWYQQKPGQSPKLLIYWASTRESGVPDRFTGSGSGTDFTLTISSVQAEDLAVYYCHQYLSSLTFGAGTKLELKR turned out to be 0.04
